test system: L1210 leukemia cells; assay: Formation of colonies of L1210 leukemia cells in soft agar; format: cell-based; conditions: Mus musculus, 168 h; 7 days incubation (continuous exposure), soft agar, L1210; read-out: Colony formation test IC50, 7 days incubation
Property Label: IC50 (ng/mL)

{"Molecule": "CCC1(O)CC(OC2CC(N(C)C)C(OC3CCC(OC4C=CC(=O)C(C)O4)C(C)O3)C(C)O2)c2c(O)c3c(c(O)c2C1OC1CC(N(C)C)C(OC2CCC(OC4C=CC(=O)C(C)O4)C(C)O2)C(C)O1)C(=O)c1cccc(O)c1C3=O (stereo not drawn) [Cytorhodin F]", "Result Value": 28}
{"Molecule": "CCC1(O)CCc2c(O)c3c(c(O)c2C1OC1CC(N(C)C)C(OC2CCC(OC4CCC(O)C(C)O4)C(C)O2)C(C)O1)C(=O)c1cccc(O)c1C3=O (stereo not drawn) [Cytorhodin E]", "Result Value": 1.4}
{"Molecule": "CCC1(O)CC(OC2CC(N(C)C)C(OC3CCC(OC4C=CC(=O)C(C)O4)C(C)O3)C(C)O2)c2c(O)c3c(c(O)c2C1OC1CC(N(C)C)C(OC2CCC(OC4CCC(O)C(C)O4)C(C)O2)C(C)O1)C(=O)c1cccc(O)c1C3=O (stereo not drawn) [Cytorhodin V]", "Result Value": 0.27}
